Values from PubChem BioAssay

Overview of reported z-score across a group of compounds:
experiment: MM1S cell viability effects, profiling panel, calcein-AM fluorescence, 48 h, basal (AID 1165); conditions: higher = more signal;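 note: viability of MM1S multiple myeloma cells under basal unstimulated conditions; test concentration not given here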

compound_structure_string	z-score
O=C(NN=C1C[C@@H](O)[C@@H](O)[C@@H]2[C@@H]3C(=O)N(Cc4ccc5c(c4)OCO5)C(=O)[C@@H]3CC[C@@H]12)OCc1ccccc1	0.291
COc1ccc(COC(=O)NN=C2C[C@@H](O)[C@@H](O)[C@@H]3[C@@H]4C(=O)N(C(C)(C)C)C(=O)[C@@H]4CC[C@@H]23)cc1	0.569
CC=CC1=C(CO)[C@H](O)[C@H]2O[C@H]2[C@@H]1O	-0.948
O=C1C[C@@H](O)[C@@H](O)[C@@H]2[C@@H]3C(=O)N(Cc4ccccc4)C(=O)[C@@H]3CC[C@H]12	-0.0999
O=C1C=C[C@@H](O)[C@@H]2[C@@H]3C(=O)N(C4CCCCC4)C(=O)[C@@H]3CC[C@@H]12	-1.88
CC(CCN1CCCc2nc(C)c(C)cc21)=NO[C@@H](C)c1cn([C@H](CO)Cc2ccccc2)nn1	0.33
CCCNC(=O)OC[C@H]1O[C@H](CCON=C2C[C@@H](O)[C@@H](O)[C@@H]3[C@@H]4C(=O)N(CC)C(=O)[C@@H]4CC[C@@H]23)C=C[C@@H]1Oc1ccc(OC)cc1	-1.61

----------
test: anti-His antibody binders, primary screen, artefact control for SMM control protein annotation, biochemical, small-molecule microarray, 635 nm fluorescence (AID 1128); conditions: anti-His Alexa647 antibody binding, higher = more signal;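 note: score merges feature fluorescence with signal-to-noise for each printed compound spot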
measurement_label: composite z-score

molecule	data_value
C[C@@H]1C=CCC(=O)OC[C@H](C)C(=O)N[C@@H](Cc2ccccc2)C(=O)OC1	-0.044
O=C(NN=C1C[C@@H](O)[C@@H](O)[C@@H]2[C@@H]3C(=O)N(Cc4ccccc4)C(=O)[C@@H]3CC[C@H]12)OCc1ccccc1	-0.136
O=C1[C@H]2[C@H]3[C@H](O)[C@H](O)CC(=NOC[C@@H](O)COCc4ccco4)[C@@H]3CC[C@H]2C(=O)N1Cc1ccccc1	0.381
CCOC(=O)[C@H](CC(C)C)NC(=O)CCC1CC(OC(=O)NCCc2ccc(F)cc2)CC2(CCCC(COC(=O)NCc3cccc4ccccc34)O2)O1 (some centres undefined)	0.229

----------
assay: small-molecule microarray binders of probe aWnt5a, primary screen, biochemical, biotinylated probe, 635/667 nm fluorescence (AID 1113); conditions: higher = more signal;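 note: score merges 667 nm fluorescence intensity with signal-to-noise per printed feature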
// no strictly below -0.2 in composite z-score; yes otherwise

compound_structure_string	label_value
C[C@H]1C=CCC(=O)OC[C@H](C)C(=O)N2CCC[C@H]2C(=O)OC1	yes
CC=CC1=C(CO)[C@H](O)[C@H]2O[C@H]2[C@@H]1O	yes
CO[C@@H]1[C@H](O)CO[C@H]1C=Cc1ccccc1	yes
C[C@@H]1CC[C@H]2C(=O)O[C@@H](CN=[N+]=[N-])CN2[C@H]1c1ccc(Br)cc1	no
CCN1C(=O)[C@H]2[C@H]3[C@H](O)[C@H](O)CC(=NNC(=O)OCc4ccccc4)[C@@H]3CC[C@H]2C1=O	yes
CO[C@@H]1COC(=O)[C@H](COCc2ccccc2)NC(=O)CC=C[C@@H](C)[C@H](OC)COC(=O)[C@@H](C)NC(=O)CC=C[C@H]1C	yes
CC(C)[C@@H](OCc1ccccc1)[C@H](C)C=NO[C@@H](C)c1cn([C@H](CO)Cc2ccccc2)nn1	yes
CCOC(=O)CCN1C(=O)[C@H]2[C@H]3[C@H](O)[C@H](O)CC(=NOCC(C)C)[C@@H]3CC[C@H]2C1=O	no
